These measurements were taken from patent US11358969B2.

Some compounds, each annotated with its measured IC50.
Target: AHR (UniProt P35869)
Construct: IC50
Sequence (P35869 1-848): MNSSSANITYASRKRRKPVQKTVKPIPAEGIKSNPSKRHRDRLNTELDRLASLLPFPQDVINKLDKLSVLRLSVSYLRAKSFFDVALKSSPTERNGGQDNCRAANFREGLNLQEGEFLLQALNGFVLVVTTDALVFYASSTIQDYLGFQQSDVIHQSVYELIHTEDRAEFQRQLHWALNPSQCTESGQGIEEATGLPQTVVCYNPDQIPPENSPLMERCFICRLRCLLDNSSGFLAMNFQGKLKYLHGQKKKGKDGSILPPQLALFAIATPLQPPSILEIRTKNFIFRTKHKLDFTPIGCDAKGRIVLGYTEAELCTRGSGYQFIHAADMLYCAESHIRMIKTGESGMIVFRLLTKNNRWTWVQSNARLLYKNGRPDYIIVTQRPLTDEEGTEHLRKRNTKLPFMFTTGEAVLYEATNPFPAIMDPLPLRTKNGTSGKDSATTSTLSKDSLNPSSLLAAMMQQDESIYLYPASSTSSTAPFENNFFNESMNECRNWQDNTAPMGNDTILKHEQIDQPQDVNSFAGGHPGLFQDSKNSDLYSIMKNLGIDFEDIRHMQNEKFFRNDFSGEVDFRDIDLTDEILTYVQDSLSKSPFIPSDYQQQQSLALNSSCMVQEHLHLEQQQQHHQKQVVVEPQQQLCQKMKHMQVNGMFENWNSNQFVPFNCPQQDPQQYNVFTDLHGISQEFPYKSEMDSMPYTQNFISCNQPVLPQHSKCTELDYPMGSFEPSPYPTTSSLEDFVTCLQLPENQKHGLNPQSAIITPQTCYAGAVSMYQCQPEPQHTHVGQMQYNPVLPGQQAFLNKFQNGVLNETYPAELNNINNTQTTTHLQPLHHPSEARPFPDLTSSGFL
Assay: DRE-Luciferase Reporter Assay (Alternate Method) (Example 1B)
Type: cell-based, murine or human
Conditions: cell line and AHR activating ligand not specified

compound="CC(C)c1ccc2c(NCCc3c[nH]c4ccccc34)nc(-c3cncc(F)c3)nn12 [I-19]" quantity=IC50 reported_measurement="< 500 nM"
compound="CC(C)c1cnn2c(NC[C@@H](C)c3ccc(O)cc3)cc(-c3cncc(F)c3)nc12 [I-28a]" quantity=IC50 reported_measurement="> 1500 nM"
compound="Fc1cncc(-c2nc(N[C@@H]3CCc4[nH]c5ccccc5c4C3)n3ncc(Br)c3n2)c1 [I-154]" quantity=IC50 reported_measurement="< 500 nM"
compound="C#Cc1cnn2c(NC3CCc4[nH]c5ccccc5c4C3)nc(-c3cncc(F)c3)nc12 (stereo not drawn) [I-282]" quantity=IC50 reported_measurement="< 500 nM"
compound="Cc1cnn2c(NCCc3c[nH]c4cccnc34)cc(-c3cncc(F)c3)nc12 [I-209]" quantity=IC50 reported_measurement="500 to 1000 nM"

Now consider a different compound.
Recorded IC50 (compound O=C(O)c1cnn2c(NCCc3c[nH]c4ccc(O)cc34)cc(-c3cncc(F)c3)nc12 [I-168] ): > 1500 nM
